Where do the numbers come from? From paper PMC4336329.

Molecular target: human ether-à-go-go-related gene (hERG) potassium channel (human, UniProt Q12809);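 note: peak tail current of the secondary pulse compared with the same well before compound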
Sequence (Q12809 whole entry, looked up): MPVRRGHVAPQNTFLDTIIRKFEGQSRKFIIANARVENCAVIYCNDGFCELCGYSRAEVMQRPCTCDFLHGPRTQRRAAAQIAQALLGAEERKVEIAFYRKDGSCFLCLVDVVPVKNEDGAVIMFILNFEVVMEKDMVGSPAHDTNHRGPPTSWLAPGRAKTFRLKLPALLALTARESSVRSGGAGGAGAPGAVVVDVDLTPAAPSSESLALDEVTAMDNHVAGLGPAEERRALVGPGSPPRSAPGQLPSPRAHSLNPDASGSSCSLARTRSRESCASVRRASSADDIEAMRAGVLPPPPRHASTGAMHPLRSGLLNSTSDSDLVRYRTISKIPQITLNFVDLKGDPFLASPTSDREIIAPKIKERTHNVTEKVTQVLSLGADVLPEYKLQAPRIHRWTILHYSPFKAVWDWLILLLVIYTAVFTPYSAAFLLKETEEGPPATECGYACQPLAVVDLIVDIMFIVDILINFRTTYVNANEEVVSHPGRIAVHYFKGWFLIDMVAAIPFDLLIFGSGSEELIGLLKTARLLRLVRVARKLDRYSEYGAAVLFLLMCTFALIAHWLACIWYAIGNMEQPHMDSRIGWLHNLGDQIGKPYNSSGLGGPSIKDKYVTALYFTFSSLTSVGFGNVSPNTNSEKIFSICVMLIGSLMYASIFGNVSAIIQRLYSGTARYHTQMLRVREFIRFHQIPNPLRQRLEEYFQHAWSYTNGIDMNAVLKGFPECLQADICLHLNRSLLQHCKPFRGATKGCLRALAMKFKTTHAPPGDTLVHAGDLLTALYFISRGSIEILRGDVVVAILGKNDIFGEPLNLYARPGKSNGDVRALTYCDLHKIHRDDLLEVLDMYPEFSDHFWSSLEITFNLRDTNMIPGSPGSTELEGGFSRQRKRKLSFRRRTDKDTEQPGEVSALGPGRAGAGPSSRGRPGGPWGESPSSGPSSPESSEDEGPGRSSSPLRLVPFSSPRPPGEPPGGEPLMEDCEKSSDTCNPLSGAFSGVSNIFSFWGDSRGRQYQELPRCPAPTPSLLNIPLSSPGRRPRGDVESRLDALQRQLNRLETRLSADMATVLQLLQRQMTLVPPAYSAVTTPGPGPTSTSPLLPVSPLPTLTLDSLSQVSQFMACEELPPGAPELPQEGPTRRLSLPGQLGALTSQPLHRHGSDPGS
Test: primary screen, population patch clamp on CHO cells stably expressing hERG; higher = less effect of the substance
In all, about 310,000 compounds went through this assay and about 14,000 (4.5%) showed an effect of 50% or more. Effects have a minus sign here. This is one part of a sample in which strong results are shown more often than they occur.
We begin with a simple list: items and their reported hERG current change (%, negative = inhibition) at 10uM.
readout_kind: hERG current change (%, negative = inhibition) at 10uM (%)

* Cc1cc(S(=O)(=O)Nc2ccc(C(=O)NCCCN3CCCC3=O)cc2)ccc1F | 8.37
* CN1CCN(S(=O)(=O)c2cccc(C(=O)N(C)Cc3cccs3)c2)CC1 | -7.83
* O=C(c1cccc(S(=O)(=O)N2CCOCC2)c1)N(Cc1ccco1)Cc1cccs1 | -68.5
* Cc1ccc(S(=O)(=O)N2CCN(C(=O)CCC(=O)NCc3ccc(F)cc3)CC2)cc1 | -24
* Cc1ccc(S(=O)(=O)N2CCN(C(=O)CCC(=O)NCc3cccc(C(F)(F)F)c3)CC2)cc1 | -54.2
* O=C(Cn1c(=O)n(Cc2ccc3c(c2)OCO3)c(=O)c2ccccc21)N1CCCc2ccccc21 | 4.46
* Cc1onc(-c2ccccc2Cl)c1C(=O)Nc1nnc(-c2ccc(Cl)cc2Cl)s1 | 17
* CN1CCN(c2c(F)cc([N+](=O)[O-])c(N)c2Br)CC1 | -45.3
* O=C(CCC(=O)N1CCOCC1)NCc1cccc(C(F)(F)F)c1 | -0.171
* COc1ccc(N2CC(C(=O)Nc3ccc(F)cc3F)CC2=O)cc1 (centres unmarked) | -0.618
* COC(=O)C1=C(C(=O)OC)C(c2cc([N+](=O)[O-])ccc2O)c2sc(=O)[nH]c2S1 (centres unmarked) | 1.28
* CS(=O)(=O)c1ccc(Cl)c(NC(=O)C2CC(=O)N(Cc3ccco3)C2)c1 (centres unmarked) | 9.79
* COc1ccc(N2CC(C(=O)N/N=C/c3ccc([N+](=O)[O-])cc3)CC2=O)cc1 (centres unmarked) | -59.5
* COc1ccc(N2CC(C(=O)N/N=C/c3ccc(C)cc3)CC2=O)cc1 (centres unmarked) | -18.8
* COC(=O)C1=C(C(=O)OC)C(c2ccc(OC)c(OC)c2)c2sc(=O)[nH]c2S1 (centres unmarked) | -54.8
* COC(=O)C1CSc2[nH]c(=O)sc2C1c1ccc(OC)c(OC)c1 (centres unmarked) | 0.0419
* COc1ccc(OC)c(N2C(=O)NC(=O)/C(=C/c3ccc([N+](=O)[O-])s3)C2=O)c1 | 12.9
* COC(=O)C1=C(C(=O)OC)C(c2cc(Br)ccc2O)c2sc(=O)[nH]c2S1 (centres unmarked) | -47.6
* O=C(O)CCCNC(=O)/C=C/c1ccco1 | 12.5
* COc1ccc2[nH]c(C(=O)Nc3ccc(F)cc3Br)cc2c1 | 11.7
* O=C(Nc1ccccc1N1CCCCC1)C1CCN(C(=O)c2ccc(Cl)cc2)CC1 | -69.9
* O=C(CSc1nnc(CNC(=O)c2ccccc2)o1)NCc1ccco1 | -0.224
* Cc1cc(C)c(C(=O)OCC(=O)NC(=O)c2ccccc2)c(C)c1 | 11.9
* CCOC(=O)CSc1nc2ccccc2c(=O)n1C | 10.1
* CO[C@@H]1[C@@H](O[C@@H]2O[C@H](C)[C@@H](O[C@H]3C[C@@](C)(OC(=O)CC(C)C)[C@@H](O)[C@H](C)O3)[C@H](N(C)C)[C@H]2O)[C@@H](CC=O)C[C@@H](C)[C@@H](O)C=CC=CC[C@@H](C)OC(=O)C[C@H]1OC(C)=O | -6.51
* CC(=O)c1csc(CS(=O)(=O)c2ccccn2)n1 | 5.4
* COc1ccc(C(=O)NCCSCc2ccccc2)cc1OC | -5.31
* CCCCOc1ccc(NC(=O)CSc2nnnn2C)cc1 | -2.43
* O=C(Nc1ccccc1N1CCCCC1)c1ccc(Cl)cc1 | 12.6
* CSc1ccc(S(=O)(=O)N2CCC(C(=O)NC3CC3)CC2)cc1 | -7.17
* CCCNC(=O)N1CCC(C(=O)c2cccc(F)c2)CC1 | -10.9
* COc1ccc(CNC(=O)CCC(=O)N2CCN(S(=O)(=O)c3ccc(Cl)cc3)CC2)cc1 | 22.3
* CCOC(=O)CN1C(=O)C(O)(CC(=O)c2ccccn2)c2ccccc21 (centres unmarked) | 14.6
* COc1ccc(C2c3sc(=O)[nH]c3SC3C4CCC(C4)C23)cc1OC (centres unmarked) | -17.5
* Cc1ccc(C)c(S(=O)(=O)N2CCN(C(=O)CCC(=O)NCc3ccc(Cl)cc3)CC2)c1 | -65.1
* CN(Cc1cccs1)C(=O)c1cccc(S(=O)(=O)N2CCCCCC2)c1 | -59.9
* CCc1ccc(NC(=O)C2CCN(S(=O)(=O)c3cnc[nH]3)CC2)cc1 | 9.27
* N#Cc1c(NC(=O)c2cc([N+](=O)[O-])ccc2N2CCOCC2)sc2c1CCCC2 | 4.02
